The values you see were collected from patent US20250152585A1.

assayed_system: full length N-terminally FLAG-tagged PARP1 (Homo sapiens, UniProt P09874)
Sequence (P09874 whole entry): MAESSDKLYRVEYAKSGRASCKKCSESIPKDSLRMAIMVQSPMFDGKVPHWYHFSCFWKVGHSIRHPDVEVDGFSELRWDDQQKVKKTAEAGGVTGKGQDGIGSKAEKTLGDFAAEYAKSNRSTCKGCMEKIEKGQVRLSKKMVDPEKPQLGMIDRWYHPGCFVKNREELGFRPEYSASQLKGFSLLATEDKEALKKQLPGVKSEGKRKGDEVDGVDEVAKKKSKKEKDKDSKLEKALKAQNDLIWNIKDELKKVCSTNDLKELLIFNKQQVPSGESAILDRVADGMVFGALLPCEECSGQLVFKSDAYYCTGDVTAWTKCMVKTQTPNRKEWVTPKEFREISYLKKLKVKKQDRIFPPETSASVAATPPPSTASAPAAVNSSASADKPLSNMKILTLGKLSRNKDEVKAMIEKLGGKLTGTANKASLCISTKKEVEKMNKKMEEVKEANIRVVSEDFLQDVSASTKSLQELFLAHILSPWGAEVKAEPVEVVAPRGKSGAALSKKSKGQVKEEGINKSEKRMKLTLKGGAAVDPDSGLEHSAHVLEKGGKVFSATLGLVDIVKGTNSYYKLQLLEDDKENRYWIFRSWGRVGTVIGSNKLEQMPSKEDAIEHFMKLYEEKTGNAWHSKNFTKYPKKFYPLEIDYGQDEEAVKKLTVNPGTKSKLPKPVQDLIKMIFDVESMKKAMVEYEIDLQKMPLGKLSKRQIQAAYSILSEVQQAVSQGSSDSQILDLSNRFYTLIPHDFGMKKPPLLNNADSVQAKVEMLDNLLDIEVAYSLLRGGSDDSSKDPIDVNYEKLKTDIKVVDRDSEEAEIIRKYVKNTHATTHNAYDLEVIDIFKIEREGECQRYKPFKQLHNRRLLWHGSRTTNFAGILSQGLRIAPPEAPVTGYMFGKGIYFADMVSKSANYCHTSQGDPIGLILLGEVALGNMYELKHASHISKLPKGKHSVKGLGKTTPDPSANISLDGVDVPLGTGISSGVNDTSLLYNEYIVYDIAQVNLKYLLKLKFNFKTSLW
assay_procedure: PARP1 probe displacement HTRF assay
setup_conditions: read-out: PARP1 HTRF; binned Kd, probe displacement HTRF
Can you tell me Kd for the items I'm about to list?

Take each entry in turn and give its Kd.
1. CNC(=O)c1cnc(N2CCC(N3CCC(c4cc5ccccc5c(=O)[nH]4)C3)CC2)s1 (racemic) [Compound 253rac]
2. CCc1ccc(C2CCN(C3CCN(c4cnc(C(=O)NC5CC5)c(F)c4)CC3)C2)[nH]c1=O (single isomer, unassigned) [Compound 408a]
3. CNC(=O)c1ncc(N2CCC(N3CCC(c4cc5ccc(F)cc5c(=O)[nH]4)C3)CC2)c(C(F)(F)F)n1 (single isomer, unassigned) [Compound 266b]
4. CC(=O)Nc1ccc(N2CCC(N3CCC(c4nc5ccccc5c(=O)[nH]4)C3)CC2)cn1 (single isomer, unassigned) [Compound 220b]

["0.01 to 0.1 µM", "< 0.01 µM", "0.01 to 0.1 µM", "0.01 to 0.1 µM"]

Field: Kd. Fill in for each record below.
1. CNC(=O)c1ccc(N2CCC(N3CCC(c4cc5c(c(C(F)(F)F)nn5C)c(=O)[nH]4)C3)CC2)cn1 (racemic) [Compound 244rac]
2. CNC(=O)c1ccc(N2CCC(N3CCC(c4cc5c(F)ccc(F)c5c(=O)[nH]4)C3)CC2)c(F)n1 (racemic) [Compound 268rac]

1: < 0.01 µM; 2: < 0.01 µM
